Entry source: patent US7838706B2

For each record, write down the corresponding pIC50.
System: H460 (human lung cancer cell)
testMethodNotes: In vitro anti-tumor activity evaluation (SRB/MTT, 72 hours)
Type: cell-based
cond: Homo sapiens, NCI-H460, 72 h, read-out: IC50 Non-small cell lung cancer H460
One number for each entry, as −log10 of the molar value.

CCOc1ccc(/C=C\c2cc(OC)c(OC)c(OC)c2)cc1N; 8.10

Moving on to the next compound.
Item: CCOc1ccc(/C=C\c2cc(OC)c(OC)c(OC)c2)cc1O | pIC50: 7.96

###

Test system: HT-29 (human colon cancer cell)
testMethodNotes: In vitro anti-tumor activity evaluation (SRB/MTT, 72 hours)
Type: cell-based
cond: HT29 cells, 72 hours incubation; read-out: IC50 Colon cancer HT29
reportedProperty: IC50 (nM)
Numbers only, in nM.

Item: COc1ccc(/C=C\c2cc(OC)c(OC)c(OC)c2)cc1O [CA-4] | IC50: 2380
